Source of measurements: the RNAGym collection of RNA variant scans (doi:10.7554/elife.90254)

B1: LINE1-mini (parent)
chain: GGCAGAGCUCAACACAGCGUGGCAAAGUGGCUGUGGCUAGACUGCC

- Variants of: B1
- assayOverview: self-cleavage, relative activity (ratio to wild type); higher = more cleavage; in vitro, sequencing; the parent is a self-cleaving ribozyme
# label = bin(measured self-cleavage), where bins are class 0 (below 0.08), class 1 (0.08 to below 0.3), class 2 (0.3 or more)

Solved entries (count: 5):
>>> df
                          constructsequence  classname
0  GGCAGGUCUCAACACAGCGUGGCAAAGUGGCUGUGGCUAGACUGCC    class 0
1  GGCAGAGCUCAACACAGCGUGCCAAAGUGGCUGUGGCUAGACUGCA    class 2
2  GGCAGAGCUCAACACAGCGUUGCAAAGUGGCUGUGGCUAGACUGUC    class 2
3  GGCAGAGCUCAACACAGCGUGGCAAAAUGGCUGUGGCUAGACUGCA    class 2
4  GGCAGAGCUCAACACAGCGUGGCUAAGUGGCUGUGGCUAGACCGCC    class 1

q: # classify by self-cleavage band: GCUAGAGCUCAACACAGCGUGGCAAAGUGGCUGUGGCUAGACUGCC
a: class 2

q: # classify by self-cleavage band: GCCAGAGCUCAACACAGCGUGGCAAAGUGGCUGUGGCAAGACUGCC
a: class 0

q: # classify by self-cleavage band: GGUAGAGCUCAACACAGCGUGGGAAAGUGGCUGUGGCUAGACUGCC
a: class 2

q: # classify by self-cleavage band: GGCAGAGCUAAACACAGCGUGGCAAAGUGGCUGUGGCAAGACUGCC
a: class 1

q: # classify by self-cleavage band: GGCAGAGCUCAACACAGAGUGGCAAAUUGGCUGUGGCUAGACUGCC
a: class 2

q: # classify by self-cleavage band: GGCAGAGCUCAACACAGCGUGGCAAGGUGGCUGUGGCUAGUCUGCC
a: class 2

q: # classify by self-cleavage band: GGCAGAGCUCAACGCAGCGUGGCAAAGCGGCUGUGGCUAGACUGCC
a: class 0

q: # classify by self-cleavage band: GGCAGAGCUCAACCCAGUGUGGCAAAGUGGCUGUGGCUAGACUGCC
a: class 0

q: # classify by self-cleavage band: GGCAGAGCUCAACACAGCGUGCCAAAGUGGCUGUGGCUAGACUGCG
a: class 1

q: # classify by self-cleavage band: GGCAGAGCUCAACACAGCGUCGCAAAGUGGCUGUGGCUAGACCGCC
a: class 0

q: # classify by self-cleavage band: GGCAGAGGUCGACACAGCGUGGCAAAGUGGCUGUGGCUAGACUGCC
a: class 0

q: # classify by self-cleavage band: GGCAGAGCUCAACUCAGCGUGGCAAAGUGGCUGUGGCUAGAGUGCC
a: class 1

q: # classify by self-cleavage band: AGCAGUGCUCAACACAGCGUGGCAAAGUGGCUGUGGCUAGACUGCC
a: class 2
